Assay: Inhibition of wild type HCV NS5B polymerase assessed as incorporation of [alpha32P]UTP into newly synthesized RNA by liquid scintillation counting
Set-up: species or system Hepacivirus hominis
Measured Ki of individual entries

C[C@@]1(F)[C@H](O)[C@@H](COP(=O)(O)OP(=O)(O)OP(=O)(O)O)O[C@H]1n1ccc(N)nc1=O [PSI-6130-TP] : 59 nM

From here, focus on the item given below.
Quick check: Ki of C[C@@]1(F)[C@H](O)[C@@H](COP(=O)(O)OP(=O)(O)OP(=O)(O)O)O[C@H]1n1ccc(=O)[nH]c1=O [GS-461203] ? 420 nM

----------
Measured Ki of individual entries
Target: RNA-directed RNA polymerase (Hepacivirus hominis, UniProt O39930, S282T)
Sequence (O39930 entry or part of it S282T): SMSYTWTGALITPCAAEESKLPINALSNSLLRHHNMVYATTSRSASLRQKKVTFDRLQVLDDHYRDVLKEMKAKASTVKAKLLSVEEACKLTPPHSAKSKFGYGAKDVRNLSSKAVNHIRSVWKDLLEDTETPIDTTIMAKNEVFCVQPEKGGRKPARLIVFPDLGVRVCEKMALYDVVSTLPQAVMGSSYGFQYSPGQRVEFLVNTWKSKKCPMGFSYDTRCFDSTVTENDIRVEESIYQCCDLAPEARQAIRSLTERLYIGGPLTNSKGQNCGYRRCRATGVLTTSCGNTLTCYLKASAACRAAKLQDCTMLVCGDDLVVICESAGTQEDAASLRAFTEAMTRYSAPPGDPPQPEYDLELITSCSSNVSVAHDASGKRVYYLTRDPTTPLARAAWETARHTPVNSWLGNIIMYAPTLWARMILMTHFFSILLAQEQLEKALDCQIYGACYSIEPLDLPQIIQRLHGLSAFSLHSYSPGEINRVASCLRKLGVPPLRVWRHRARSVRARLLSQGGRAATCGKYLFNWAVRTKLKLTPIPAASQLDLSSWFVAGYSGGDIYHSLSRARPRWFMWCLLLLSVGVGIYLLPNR
Assay: Inhibition of HCV NS5B polymerase S282T mutant assessed as incorporation of [alpha32P]UTP into newly synthesized RNA by liquid scintillation counting
Answer as a quantity: numeral, then unit.

C[C@@]1(F)[C@H](O)[C@@H](COP(=O)(O)OP(=O)(O)OP(=O)(O)O)O[C@H]1n1ccc(=O)[nH]c1=O : 22 µM

From here, focus on the item given below.
Quick check: Ki of C[C@@]1(F)[C@H](O)[C@@H](COP(=O)(O)OP(=O)(O)OP(=O)(O)O)O[C@H]1n1ccc(N)nc1=O ? 0.31 µM
